Target: T1, murine IL-11 (mouse, UniProt P47873 22-199)
T1 construct: bought from Invigate; also called mIL-11; mIL11
T1 sequence: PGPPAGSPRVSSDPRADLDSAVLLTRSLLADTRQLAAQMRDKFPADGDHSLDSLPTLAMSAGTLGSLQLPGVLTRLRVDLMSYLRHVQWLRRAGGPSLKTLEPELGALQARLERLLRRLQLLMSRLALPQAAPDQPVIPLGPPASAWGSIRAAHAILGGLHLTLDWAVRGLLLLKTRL
Assay: SPR, antibody captured, IL-11 as analyte
Please use t for Kd under 0.9 nM and f for everything else, ties included.

Solved cases (2 shown):
Binder	Group label
TPP-26315 (antibody, V domains shown, constant regions not restated) VH: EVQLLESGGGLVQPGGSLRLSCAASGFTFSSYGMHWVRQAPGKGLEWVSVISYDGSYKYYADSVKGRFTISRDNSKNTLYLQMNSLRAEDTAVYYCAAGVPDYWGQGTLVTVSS VL: QSVLTQPPSASGTPGQRVTISCTGSSSNIGAHYDVHWYQQLPGTAPKLLIYSNNERPSGVPDRFSGSKSGTSASLAISGLRSEDEADYYCAAWDDSLNGPVFGGGTKLTVL	f
TPP-26310 (antibody, V domains shown, constant regions not restated) VH: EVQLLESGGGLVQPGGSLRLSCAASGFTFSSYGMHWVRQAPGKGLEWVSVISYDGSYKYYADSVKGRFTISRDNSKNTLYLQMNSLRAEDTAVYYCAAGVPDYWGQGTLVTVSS VL: QSVLTQPPSASGTPGQRVTISCTGSSSNIGAGYDVHWYQQLPGTAPKLLIYSNNERPWGVPDRFSGSKSGTSASLAISGLRSEDEADYYCAAWDDSLNGPVFGGGTKLTVL	t

Then this binder:
Please determine if TPP-26308 (antibody, V domains shown, constant regions not restated) VH: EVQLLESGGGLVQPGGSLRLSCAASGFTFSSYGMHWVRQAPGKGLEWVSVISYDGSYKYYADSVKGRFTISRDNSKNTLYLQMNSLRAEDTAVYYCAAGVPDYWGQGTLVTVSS VL: QSVLTQPPSASGTPGQRVTISCTGSSSNIGAGYDVHWYQQLPGTAPKLLIYSNNERPSGVPDRFSGSKSGTSASLAISGLRSEDEADYYCAAWDVSLNGPVFGGGTKLTVL is below 0.9 nM in terms of Kd.
f
